system: Huh-7; experiment: Cytotoxicity against human Huh-7 cells assessed as cell viability at 10 uM measured after 48 hrs by Alamar blue staining based analysis; type: toxicity; conditions: huh-7, 48 h
measuredParameter: Activity

molecule=CCN(CC)CCCNc1c2ccc(Cl)cc2nc2c(NCCCCNC(=O)/C=C/c3ccccc3)cc(OC)cc12 result=Toxic
molecule=CCN(CC)CCCNc1c2ccc(Cl)cc2nc2c(NCCCCNC(=O)/C=C/c3ccc(F)cc3)cc(OC)cc12 result=Toxic
molecule="CCN(CC)CCCC(C)Nc1c2ccc(Cl)cc2nc2c(NCCCCNC(=O)/C=C/c3ccc(OC)cc3)cc(OC)cc12 (stereo not given)" result=Toxic
molecule="CCN(CC)CCCC(C)Nc1c2ccc(Cl)cc2nc2c(NCCCCNC(=O)/C=C/c3cccc(F)c3)cc(OC)cc12 (stereo not given)" result=Toxic
molecule="CCN(CC)CCCC(C)Nc1c2ccc(Cl)cc2nc2c(NCCCCNC(=O)/C=C/c3ccccc3)cc(OC)cc12 (stereo not given)" result=Toxic
molecule="CCN(CC)CCCC(C)Nc1c2ccc(Cl)cc2nc2c(NCCCCNC(=O)/C=C/c3ccc(F)cc3)cc(OC)cc12 (stereo not given)" result=Toxic
molecule=CCN(CC)CCCNc1c2ccc(Cl)cc2nc2c(NCCCCN)cc(OC)cc12 result=Non-Toxic
molecule=CCN(CC)CCCNc1c2ccc(Cl)cc2nc2c(NCCCCNC(=O)/C=C/c3ccc(OC)cc3)cc(OC)cc12 result=Toxic
molecule="CCN(CC)CCCC(C)Nc1c2ccc(Cl)cc2nc2c(NCCCCN)cc(OC)cc12 (stereo not given)" result=Non-Toxic
molecule=CCN(CC)CCCNc1c2ccc(Cl)cc2nc2c(NCCCCNC(=O)/C=C/c3cccc(F)c3)cc(OC)cc12 result=Toxic
